Reference source for all entries: patent US4112073A

Can you tell me Equivalent (dexamethasone equivalent) for the items I'm about to list?
experimental protocol: Relative clinical effect of ACH (dexamethasone equivalent)
test parameters: dexamethasone taken as unity
Give bare numbers.

compound: C[C@H]1C[C@@H]2[C@H]([C@@H](O)C[C@@]3(C)[C@H]2CC[C@]3(O)C(=O)CO)[C@@]2(C)C=CC(=O)C=C12 [Methylprednisolone, 6α-methylprednisolone]
measured number: 6
--
compound: C[C@]12C=CC(=O)C=C1CC[C@@H]1[C@@H]2[C@@H](O)C[C@@]2(C)[C@H]1CC[C@]2(O)C(=O)CO [Prednisolone, prednisolone]
measured number: 7.5

For the next question, use this compound.
# compound C[C@@H]1C[C@H]2[C@@H]3CCC4=CC(=O)C=C[C@]4(C)[C@@]3(F)[C@@H](O)C[C@]2(C)[C@@]1(O)C(=O)CO [Dexamethasone, 9α-fluoro-16α-methylprednisolone] ; its Equivalent (dexamethasone equivalent) = 1

###

Answer each item with its documented Equivalent (dexamethasone equivalent).
experimental protocol: Relative clinical effect of ACH (dexamethasone equivalent)
test parameters: dexamethasone taken as unity
Give bare numbers.

molecule: C[C@@H]1C[C@H]2[C@@H]3C[C@H](F)C4=CC(=O)C=C[C@]4(C)[C@H]3[C@@H](O)C[C@]2(C)[C@@]1(O)C(=O)CO
Equivalent (dexamethasone equivalent): 3
--
molecule: C[C@]12C=CC(=O)C=C1CC[C@H]1[C@@H]3C[C@@H](O)[C@](O)(C(=O)CO)[C@@]3(C)C[C@H](O)[C@@]12F [Triamcinolone, 9α-fluoro-16α-hydroxyprednisolone]
Equivalent (dexamethasone equivalent): 6
--
molecule: C[C@H]1C[C@H]2[C@@H]3CCC4=CC(=O)C=C[C@]4(C)[C@@]3(F)[C@@H](O)C[C@]2(C)[C@@]1(O)C(=O)CO
Equivalent (dexamethasone equivalent): 1

Would you kindly look at the next entry?
Lookup result for C[C@]12CCC(=O)C=C1CC[C@@H]1[C@@H]2[C@@H](O)C[C@@]2(C)[C@H]1CC[C@]2(O)C(=O)CO [Hydrocortisone] ; measured Equivalent (dexamethasone equivalent): 30
